Assay: Plasma SRA737 pharmacokinetics (LC-MS assay, non-compartmental methods)
Assay type: in vivo, human
Settings: human, plasma, oral, 800 mg, repeat doses on C1D8, C1D22, C2D8, C2D15 or C2D22, N 31, plasma; median (minimum-maximum); read-out: tmax
Description: Serial sampling of blood for PK assessment was conducted before and after dosing with single-agent SRA737 (9 time points over 48 h) on Day −7 to Day −4 and on Cycle 1 Day 22; in addition, samples were drawn pre-dose on Days 1, 8, and 15 of Cycle 1, and pre-dose on Day 1 of each subsequent cycle. Plasma SRA737 concentrations were quantified using a fully validated liquid chromatography-mass spectrometry assay with a lower limit of quantitation of 5 ng/ml as previously described. […]
READOUT_NAME: Tmax

STRUCTURE_NOTATION: N#Cc1cnc(Nc2cc(NC[C@H]3CNCCO3)c(C(F)(F)F)cn2)cn1
ASSAY_RESULT: 2 h

====

assay: Plasma SRA737 pharmacokinetics (LC-MS assay, non-compartmental methods); format: in vivo, human; conditions: human, plasma, oral, 600 mg, repeat doses, N 7, plasma; mean ± standard deviation; read-out: t½ (converted)

STRUCTURE_NOTATION: N#Cc1cnc(Nc2cc(NC[C@H]3CNCCO3)c(C(F)(F)F)cn2)cn1
half-life (h): 8.22

====

Test: Plasma SRA737 pharmacokinetics (LC-MS assay, non-compartmental methods)
Assay type: in vivo, human
Conditions: human, plasma, oral, 600 mg, repeat doses, N 7, plasma; mean ± standard deviation; read-out: Vd/F
Protocol: Serial sampling of blood for PK assessment was conducted before and after dosing with single-agent SRA737 (9 time points over 48 h) on Day −7 to Day −4 and on Cycle 1 Day 22; in addition, samples were drawn pre-dose on Days 1, 8, and 15 of Cycle 1, and pre-dose on Day 1 of each subsequent cycle. Plasma SRA737 concentrations were quantified using a fully validated liquid chromatography-mass spectrometry assay with a lower limit of quantitation of 5 ng/ml as previously described. […]

STRUCTURE_NOTATION: N#Cc1cnc(Nc2cc(NC[C@H]3CNCCO3)c(C(F)(F)F)cn2)cn1
READOUT_UNIT: L
Vd/F: 320

====

test: Plasma SRA737 pharmacokinetics (LC-MS assay, non-compartmental methods); type: in vivo, human; settings: human, plasma, oral, 1000 mg, repeated doses of 600, 800 and 1000 mg QD; read-out: Tmax, ranged

COMPOUND: N#Cc1cnc(Nc2cc(NC[C@H]3CNCCO3)c(C(F)(F)F)cn2)cn1 [SRA737]
Tmax: 1 to 6 h

====

test: Plasma SRA737 pharmacokinetics (LC-MS assay, non-compartmental methods); type: in vivo, human; conditions: human, plasma, oral, 1000 mg, repeated doses of 600, 800 and 1000 mg QD; read-out: individual apparent volume of distribution (Vd/F) values, range

COMPOUND: N#Cc1cnc(Nc2cc(NC[C@H]3CNCCO3)c(C(F)(F)F)cn2)cn1 [SRA737]
Vd/F: 215 to 1590 L

====

assay: Plasma SRA737 pharmacokinetics (LC-MS assay, non-compartmental methods); format: in vivo, human; settings: human, oral; 800 mg, repeat doses, N 31, plasma; mean ± standard deviation
READOUT_NAME: Cmax (ng/mL)

STRUCTURE_NOTATION: N#Cc1cnc(Nc2cc(NC[C@H]3CNCCO3)c(C(F)(F)F)cn2)cn1
ASSAY_RESULT: 2480

====

experiment: Plasma SRA737 pharmacokinetics (LC-MS assay, non-compartmental methods); assay type: in vivo, human; conditions: human, plasma, oral, 800 mg, repeat doses, N 31, plasma; mean ± standard deviation; read-out: t½ (converted)

MOLECULE: N#Cc1cnc(Nc2cc(NC[C@H]3CNCCO3)c(C(F)(F)F)cn2)cn1 [SRA737]
half-life: 8.25 h

====

assay: Plasma SRA737 pharmacokinetics (LC-MS assay, non-compartmental methods); format: in vivo, human; settings: human, plasma, oral, 1000 mg, repeat doses, N 16, plasma; mean ± standard deviation; read-out: t½ (converted)

STRUCTURE_NOTATION: N#Cc1cnc(Nc2cc(NC[C@H]3CNCCO3)c(C(F)(F)F)cn2)cn1
half-life (h): 8.45

====

Assay: Plasma SRA737 pharmacokinetics (LC-MS assay, non-compartmental methods)
Format: in vivo, human
Details: human, plasma, oral, 1000 mg, repeated doses of 600, 800 and 1000 mg QD; read-out: Estimated elimination half-life (t½) values, range
Procedure: Serial sampling of blood for PK assessment was conducted before and after dosing with single-agent SRA737 (9 time points over 48 h) on Day −7 to Day −4 and on Cycle 1 Day 22; in addition, samples were drawn pre-dose on Days 1, 8, and 15 of Cycle 1, and pre-dose on Day 1 of each subsequent cycle. Plasma SRA737 concentrations were quantified using a fully validated liquid chromatography-mass spectrometry assay with a lower limit of quantitation of 5 ng/ml as previously described. […]
READOUT_NAME: half-life

STRUCTURE_NOTATION: N#Cc1cnc(Nc2cc(NC[C@H]3CNCCO3)c(C(F)(F)F)cn2)cn1
READOUT_NAME: half-life
ASSAY_RESULT: 6.23 to 10.4 h

====

experiment: Plasma SRA737 pharmacokinetics (LC-MS assay, non-compartmental methods); format: in vivo, human; settings: human, plasma, oral, 1000 mg, repeated doses of 600, 800 and 1000 mg QD; read-out: Tmax, generally occurred

STRUCTURE_NOTATION: N#Cc1cnc(Nc2cc(NC[C@H]3CNCCO3)c(C(F)(F)F)cn2)cn1
Tmax: 2 to 4 h

====

experiment: Plasma SRA737 pharmacokinetics (LC-MS assay, non-compartmental methods); assay type: in vivo, human; details: human, plasma, oral, 1000 mg, repeat doses, N 16, plasma; mean ± standard deviation; read-out: Vd/F
READOUT_NAME: Vd/F (L)

STRUCTURE_NOTATION: N#Cc1cnc(Nc2cc(NC[C@H]3CNCCO3)c(C(F)(F)F)cn2)cn1
ASSAY_RESULT: 477

====

assay: Plasma SRA737 pharmacokinetics (LC-MS assay, non-compartmental methods); type: in vivo, human; conditions: human, plasma, oral, 1000 mg, repeat doses on C1D8, C1D22, C2D8, C2D15 or C2D22, N 16, plasma; median (minimum-maximum); read-out: tmax
READOUT_NAME: Tmax (h)

STRUCTURE_NOTATION: N#Cc1cnc(Nc2cc(NC[C@H]3CNCCO3)c(C(F)(F)F)cn2)cn1
ASSAY_RESULT: 2

====

assay: Plasma SRA737 pharmacokinetics (LC-MS assay, non-compartmental methods); type: in vivo, human; conditions: human, oral; 600 mg, repeat doses, N 7, plasma; mean ± standard deviation; read-out: AUC0-24
READOUT_NAME: AUC(0-t)

STRUCTURE_NOTATION: N#Cc1cnc(Nc2cc(NC[C@H]3CNCCO3)c(C(F)(F)F)cn2)cn1
ASSAY_RESULT: 22.1 µg·h/mL

====

assay: Plasma SRA737 pharmacokinetics (LC-MS assay, non-compartmental methods); assay type: in vivo, human; settings: human, oral; 1000 mg, repeat doses, N 16, plasma; mean ± standard deviation

STRUCTURE_NOTATION: N#Cc1cnc(Nc2cc(NC[C@H]3CNCCO3)c(C(F)(F)F)cn2)cn1
READOUT_UNIT: ng/mL
Cmax: 2490

====

experiment: Plasma SRA737 pharmacokinetics (LC-MS assay, non-compartmental methods); type: in vivo, human; settings: human, oral; 1000 mg, repeat doses, N 16, plasma; mean ± standard deviation; read-out: AUC0-24

COMPOUND: N#Cc1cnc(Nc2cc(NC[C@H]3CNCCO3)c(C(F)(F)F)cn2)cn1 [SRA737]
READOUT_UNIT: ng·h/mL
AUC(0-t): 27200
